Molecular target: T1, Human TNFR2-His (Sino 10417-H08H) (human, UniProt P20333 23-257)
T1 construct: Bought protein; also called recombinant human TNFR2 protein; not shown: His tag
T1 sequence (looked up): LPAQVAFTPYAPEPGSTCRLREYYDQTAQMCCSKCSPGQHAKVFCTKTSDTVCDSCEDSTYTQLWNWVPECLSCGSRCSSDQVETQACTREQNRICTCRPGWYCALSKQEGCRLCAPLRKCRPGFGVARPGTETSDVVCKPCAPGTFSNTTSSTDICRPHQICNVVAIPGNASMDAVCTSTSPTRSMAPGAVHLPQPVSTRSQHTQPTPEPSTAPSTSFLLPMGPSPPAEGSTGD
Assay: SPR (Biacore T200), antibody captured on Protein A chip
Readout Kind: koff (s⁻¹)
Express your answer in s⁻¹, writing the number without its unit.

Example results:
224-Hu3 (antibody, V domains shown, Humanized form of #224; also called VH9 + VL8) VH: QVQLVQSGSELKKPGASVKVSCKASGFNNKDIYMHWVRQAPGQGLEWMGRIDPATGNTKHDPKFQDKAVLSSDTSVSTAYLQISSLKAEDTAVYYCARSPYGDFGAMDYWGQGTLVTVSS VL: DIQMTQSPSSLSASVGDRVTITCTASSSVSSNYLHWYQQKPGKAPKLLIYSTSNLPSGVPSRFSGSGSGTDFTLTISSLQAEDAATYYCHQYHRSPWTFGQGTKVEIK
0.000726
219-Hu1 (antibody, V domains shown, also called VH3 + VL5) VH: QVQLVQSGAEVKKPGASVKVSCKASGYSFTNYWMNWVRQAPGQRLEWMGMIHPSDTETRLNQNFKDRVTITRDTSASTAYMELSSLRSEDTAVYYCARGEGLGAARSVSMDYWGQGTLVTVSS VL: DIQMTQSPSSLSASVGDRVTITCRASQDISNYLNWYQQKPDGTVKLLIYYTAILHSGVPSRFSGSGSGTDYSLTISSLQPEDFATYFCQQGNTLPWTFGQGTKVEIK
0.000153
219-WT (antibody, V domains shown, Human-murine chimeric wild-type molecule) VH: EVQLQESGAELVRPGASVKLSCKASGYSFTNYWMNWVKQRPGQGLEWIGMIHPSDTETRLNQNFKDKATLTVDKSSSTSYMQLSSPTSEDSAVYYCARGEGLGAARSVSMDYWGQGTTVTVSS VL: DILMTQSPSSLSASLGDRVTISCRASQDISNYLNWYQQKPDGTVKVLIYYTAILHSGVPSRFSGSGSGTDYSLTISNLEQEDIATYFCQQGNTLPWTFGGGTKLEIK
0.000192

Problem: Name the reported koff value associated with the binder 001-WT (antibody, V domains shown, Human-murine chimeric wild-type molecule; also called human-murine chimeric antibody WT of #001) VH: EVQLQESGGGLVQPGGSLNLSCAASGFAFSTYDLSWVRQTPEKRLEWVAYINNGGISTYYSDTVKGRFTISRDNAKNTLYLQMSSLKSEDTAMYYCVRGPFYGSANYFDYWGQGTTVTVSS VL: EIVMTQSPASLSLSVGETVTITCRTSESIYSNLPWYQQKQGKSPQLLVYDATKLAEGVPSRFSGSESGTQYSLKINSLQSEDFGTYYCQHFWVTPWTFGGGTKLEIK
Result: 0.000121

Problem: Okay, and 219-Hu3 (antibody, V domains shown, also called VH5 + VL5) VH: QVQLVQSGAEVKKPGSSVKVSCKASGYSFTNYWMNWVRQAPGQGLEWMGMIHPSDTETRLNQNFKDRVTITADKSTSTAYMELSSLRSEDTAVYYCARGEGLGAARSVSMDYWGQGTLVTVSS VL: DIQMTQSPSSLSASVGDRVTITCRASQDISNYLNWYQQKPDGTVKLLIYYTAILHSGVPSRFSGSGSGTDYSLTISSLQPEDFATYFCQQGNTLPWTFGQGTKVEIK ?
Result: 0.000146

Problem: Okay, and 001-Hu2 (antibody, V domains shown, Humanized form of #001; also called VH2 + VL2) VH: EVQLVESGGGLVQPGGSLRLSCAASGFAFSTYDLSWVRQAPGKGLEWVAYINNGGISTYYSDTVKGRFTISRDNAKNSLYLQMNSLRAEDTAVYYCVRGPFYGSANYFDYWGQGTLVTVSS VL: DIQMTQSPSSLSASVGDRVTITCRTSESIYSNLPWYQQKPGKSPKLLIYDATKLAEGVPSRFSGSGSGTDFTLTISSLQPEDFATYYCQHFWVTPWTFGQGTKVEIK ?
Result: 0.000107

Problem: Okay, and 001-Hu4 (antibody, V domains shown, Humanized form of #001; also called VH2 + VL4) VH: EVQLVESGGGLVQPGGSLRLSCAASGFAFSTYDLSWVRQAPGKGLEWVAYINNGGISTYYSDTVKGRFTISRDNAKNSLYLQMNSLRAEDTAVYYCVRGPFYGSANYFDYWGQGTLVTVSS VL: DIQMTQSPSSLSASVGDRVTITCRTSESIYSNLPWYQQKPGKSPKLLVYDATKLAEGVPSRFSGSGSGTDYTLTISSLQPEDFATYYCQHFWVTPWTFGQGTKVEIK ?
Result: 0.000113

Problem: Okay, and 001-Hu1 (antibody, V domains shown, Humanized form of #001; also called VH1 + VL1) VH: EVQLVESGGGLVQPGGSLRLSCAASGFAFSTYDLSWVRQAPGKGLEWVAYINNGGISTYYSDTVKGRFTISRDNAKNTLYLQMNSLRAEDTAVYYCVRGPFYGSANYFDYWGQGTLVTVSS VL: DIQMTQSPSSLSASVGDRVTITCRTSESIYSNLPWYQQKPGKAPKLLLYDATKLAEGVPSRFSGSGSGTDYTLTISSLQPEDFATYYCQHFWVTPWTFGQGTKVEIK ?
Result: 0.000108

Problem: Okay, and 219-Hu2 (antibody, V domains shown, also called VH4 + VL5) VH: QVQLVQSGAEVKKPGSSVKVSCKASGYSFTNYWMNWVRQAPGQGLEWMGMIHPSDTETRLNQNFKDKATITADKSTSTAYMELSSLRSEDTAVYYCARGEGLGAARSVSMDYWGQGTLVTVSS VL: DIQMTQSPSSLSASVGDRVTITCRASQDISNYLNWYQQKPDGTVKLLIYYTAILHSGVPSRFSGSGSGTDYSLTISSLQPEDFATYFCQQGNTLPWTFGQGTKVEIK ?
Result: 0.000151

Hello, the source for this data is patent US20240109974A1, in case you need it.
